Molecular target: T1, Recombinant Human DLL4 (delta-like protein 4) (human, UniProt Q9NR61 27-524)
T1 construct: Bought recombinant human DLL4 (R&D Systems Cat#1506-D4/CF); also called rHuman DLL4
Experiment: ECL (MSD) multispot binding assay, antigen spotted on plate, Fab in solution;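 also: purified Fab incubated 1 h at 20 °C, detected via TAG-labelled antibody electrochemiluminescence, antigen spot compared with the blank in the same well, ratio at least 4 counted as hit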
# maps each entry to its Signal/Blank
Answer field: number only, no words.

Request: Look at this binder and give its reported Signal/Blank. Fab VH1-46_IGHD6-6*01_IGHJ1*01 S102A/S103P/S104F/H111F (APFF) & L6_IGKJ1*01 S30P (Fab, V domains shown, Fab made in E. coli; The constant parts (CH1 with His6 and Flag tags from plasmid A, kappa CL from plasmid C) are not added here; also called APFF & S30P) VH: QVQLVQSGAEVKKPGASVKVSCKASGYTFTSYYMHWVRQAPGQGLEWMGIINPSGGSTSYAQKFQGRVTMTRDTSTSTVYMELSSLRSEDTAVYYCAREEYAPFSAEYFQFWGQGTLVTVSS VL: EIVLTQSPATLSLSPGERATLSCRASQSVPSYLAWYQQKPGQAPRLLIYDASNRATGIPARFSGSGSGTDFTLTISSLEPEDFAVYYCQQRSNWPPWTFGQGTKVEIKR
Response: 4.2

---
Request: Look at this binder and give its reported Signal/Blank. Fab VH1-46_IGHD6-6*01_IGHJ1*01 S102A/S103P/S104F/H111F (APFF) & L6_IGKJ1*01 S31M (Fab, V domains shown, Fab made in E. coli; The constant parts (CH1 with His6 and Flag tags from plasmid A, kappa CL from plasmid C) are not added here; also called APFF & S31M) VH: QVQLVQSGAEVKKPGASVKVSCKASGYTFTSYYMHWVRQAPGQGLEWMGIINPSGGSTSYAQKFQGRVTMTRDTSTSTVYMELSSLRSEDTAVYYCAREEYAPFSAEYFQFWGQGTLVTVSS VL: EIVLTQSPATLSLSPGERATLSCRASQSVSMYLAWYQQKPGQAPRLLIYDASNRATGIPARFSGSGSGTDFTLTISSLEPEDFAVYYCQQRSNWPPWTFGQGTKVEIKR
Response: 378
